Attribution: ChEMBL document CHEMBL1649465

Record form. Attribute: MIC. Fill in for each entry.
system: Escherichia coli; experiment: Antimicrobial activity against Escherichia coli isolate 5411 by broth microdilution method; assay type: functional
Numbers only, in µg/mL.

Check out these entries, answers already filled in.
C[C@H]1COc2c(N3CCN(C)CC3)c(F)cc3c(=O)c(C(=O)O)cn1c23.C[C@H]1COc2c(N3CCN(C)CC3)c(F)cc3c(=O)c(C(=O)O)cn1c23.O    8
C[C@H]1[C@H](NC(=O)/C(=N\OC(C)(C)C(=O)O)c2csc(N)n2)C(=O)N1S(=O)(=O)O    8
C[C@@H](O)[C@H]1C(=O)N2C(C(=O)O)=C(S[C@@H]3CN[C@H](C(=O)N(C)C)C3)[C@H](C)[C@H]12    0.06
NCC[C@H](O)C(=O)N[C@@H]1C[C@H](N)[C@@H](O[C@H]2O[C@H](CN)[C@@H](O)[C@H](O)[C@H]2O)[C@H](O)[C@H]1O[C@H]1O[C@H](CO)[C@@H](O)[C@H](N)[C@H]1O    8

Next compound, MIC to be filled in.
If you can, please state the reported MIC value of CN(C)c1cc(NC(=O)CNC(C)(C)C)c(O)c2c1C[C@H]1C[C@H]3[C@H](N(C)C)C(O)=C(C(N)=O)C(=O)[C@@]3(O)C(O)=C1C2=O .
0.125

* * *

system: Pseudomonas aeruginosa; experiment: Antimicrobial activity against Pseudomonas aeruginosa isolate 956 by broth microdilution method; assay type: functional
ATTRIBUTE MEASURED: MIC (µg/mL)
Answers are plain numbers, in µg/mL.

Check out these entries, answers already filled in.
C[C@H]1[C@H](NC(=O)/C(=N\OC(C)(C)C(=O)O)c2csc(N)n2)C(=O)N1S(=O)(=O)O    8
C[C@H]1COc2c(N3CCN(C)CC3)c(F)cc3c(=O)c(C(=O)O)cn1c23.C[C@H]1COc2c(N3CCN(C)CC3)c(F)cc3c(=O)c(C(=O)O)cn1c23.O    0.5

// for each compound below, give its MIC
1. NCC[C@H](O)C(=O)N[C@@H]1C[C@H](N)[C@@H](O[C@H]2O[C@H](CN)[C@@H](O)[C@H](O)[C@H]2O)[C@H](O)[C@H]1O[C@H]1O[C@H](CO)[C@@H](O)[C@H](N)[C@H]1O
2. C[C@@H](O)[C@H]1C(=O)N2C(C(=O)O)=C(S[C@@H]3CN[C@H](C(=O)N(C)C)C3)[C@H](C)[C@H]12
3. CN(C)c1cc(NC(=O)CNC(C)(C)C)c(O)c2c1C[C@H]1C[C@H]3[C@H](N(C)C)C(O)=C(C(N)=O)C(=O)[C@@]3(O)C(O)=C1C2=O

1. 4
2. 0.25
3. 16

* * *

Record form. Attribute: MIC. Fill in for each entry.
tested on: Enterobacter cloacae; experiment: Antimicrobial activity against […] Enterobacter cloacae by broth microdilution method; assay type: functional

// for each molecule below, give its MIC
1. C[C@H]1COc2c(N3CCN(C)CC3)c(F)cc3c(=O)c(C(=O)O)cn1c23.C[C@H]1COc2c(N3CCN(C)CC3)c(F)cc3c(=O)c(C(=O)O)cn1c23.O
2. CN(C)c1cc(NC(=O)CNC(C)(C)C)c(O)c2c1C[C@H]1C[C@H]3[C@H](N(C)C)C(O)=C(C(N)=O)C(=O)[C@@]3(O)C(O)=C1C2=O
3. C[C@@H](O)[C@H]1C(=O)N2C(C(=O)O)=C(S[C@@H]3CN[C@H](C(=O)N(C)C)C3)[C@H](C)[C@H]12

1: 0.03 µg/mL; 2: 0.25 µg/mL; 3: 0.03 µg/mL

If you can, please state the reported MIC value of NCC[C@H](O)C(=O)N[C@@H]1C[C@H](N)[C@@H](O[C@H]2O[C@H](CN)[C@@H](O)[C@H](O)[C@H]2O)[C@H](O)[C@H]1O[C@H]1O[C@H](CO)[C@@H](O)[C@H](N)[C@H]1O .
0.5 µg/mL
